test: Half-life was determined; type: ADME; conditions: human
reported.metric: half-life (days)
The figure you give is taken to be in days; do not add the unit.

Using known records, supply half-life for C[C@@H](O)[C@H]1C(=O)N2C(C(=O)[O-])=C(C(C)(C)C)S[C@H]12.[K+]
16

* * *

tested on: Escherichia coli; assay: Tested in vitro for the beta lactamase inhibition of Escherichia coli TEM; type: functional
reported.metric: pIC50
# pIC50 = -log10(concentration in molar units)

Sample records with pIC50:
C[C@@H](O)[C@H]1C(=O)N2C(C(=O)[O-])=C(C(C)(C)C)S[C@H]12.[K+]	7.30
C[C@@H](O)[C@H]1C(=O)N2C(C(=O)[O-])=C(C(C)(C)C)O[C@H]12.[K+]	5.52

Consider the record given below.
Determine its reported pIC50: O=C(O)[C@H]1/C(=C/CO)O[C@@H]2CC(=O)N21 [CLAVULANIC ACID]
7.40
